Target: ACE (Sigma, A2580) (Sus scrofa)
Construct: ACE from porcine kidney; purchased Sigma A2580; host or cells: porcine kidney
Sequence (F1RRW5 34-1309): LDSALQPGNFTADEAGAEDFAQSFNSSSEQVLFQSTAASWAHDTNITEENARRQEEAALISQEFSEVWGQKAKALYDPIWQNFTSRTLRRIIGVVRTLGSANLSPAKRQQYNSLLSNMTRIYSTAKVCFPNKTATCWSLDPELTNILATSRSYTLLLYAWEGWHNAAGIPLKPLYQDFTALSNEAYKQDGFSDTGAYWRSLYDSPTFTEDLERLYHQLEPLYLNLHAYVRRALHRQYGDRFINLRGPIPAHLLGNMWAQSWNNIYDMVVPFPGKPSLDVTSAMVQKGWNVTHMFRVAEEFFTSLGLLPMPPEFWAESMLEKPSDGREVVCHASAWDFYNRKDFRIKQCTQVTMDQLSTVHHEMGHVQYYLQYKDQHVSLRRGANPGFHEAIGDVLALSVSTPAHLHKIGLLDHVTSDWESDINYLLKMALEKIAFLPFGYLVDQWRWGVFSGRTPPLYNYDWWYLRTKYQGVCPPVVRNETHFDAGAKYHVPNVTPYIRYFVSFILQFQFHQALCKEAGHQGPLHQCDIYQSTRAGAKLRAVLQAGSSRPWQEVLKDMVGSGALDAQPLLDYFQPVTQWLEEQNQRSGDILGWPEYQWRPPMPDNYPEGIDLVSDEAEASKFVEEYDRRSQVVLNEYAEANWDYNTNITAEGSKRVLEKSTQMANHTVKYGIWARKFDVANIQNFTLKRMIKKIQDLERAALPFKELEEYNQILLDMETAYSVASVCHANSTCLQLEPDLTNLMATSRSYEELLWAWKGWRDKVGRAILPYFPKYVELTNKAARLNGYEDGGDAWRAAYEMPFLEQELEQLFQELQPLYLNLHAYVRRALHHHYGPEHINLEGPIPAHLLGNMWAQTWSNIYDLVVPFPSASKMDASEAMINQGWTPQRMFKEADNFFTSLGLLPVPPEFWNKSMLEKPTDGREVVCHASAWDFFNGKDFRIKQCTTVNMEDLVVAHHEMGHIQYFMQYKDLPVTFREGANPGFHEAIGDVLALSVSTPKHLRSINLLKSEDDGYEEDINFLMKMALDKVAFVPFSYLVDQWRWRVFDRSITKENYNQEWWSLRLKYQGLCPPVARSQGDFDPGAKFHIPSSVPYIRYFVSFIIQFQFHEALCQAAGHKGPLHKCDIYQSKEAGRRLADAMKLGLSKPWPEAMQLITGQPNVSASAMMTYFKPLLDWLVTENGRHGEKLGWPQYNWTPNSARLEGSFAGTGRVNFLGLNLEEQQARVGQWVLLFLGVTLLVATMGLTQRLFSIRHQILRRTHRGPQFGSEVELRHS
Assay notes: ACE enzymatic activity assay
Type: biochemical, porcine
Measurement setup: Ki class; compounds tested in 5% DMSO, 12 concentrations
pKi: −log10 of the molar value.
Kindly state pKi for each of the entries shown.

Kindly state the measured pKi obtained for CC(C)CC(N[C@H](CN(C)Cc1ccccc1)C(=O)O)C(=O)O (stereo in doubt) with ACE (Sigma, A2580) (Sus scrofa).
< 4.30

Kindly state the measured pKi obtained for `O=C(O)[C@H](CC#Cc1ccccn1)N[C@@H](CCc1ccccc1)C(=O)O` with ACE (Sigma, A2580) (Sus scrofa).
< 4.30

Kindly state the measured pKi obtained for CCC(NC(Cc1c[nH]c2ccccc12)C(=O)O)C(=O)O (stereo not shown) with ACE (Sigma, A2580) (Sus scrofa).
< 4.30

Kindly state the measured pKi obtained for CC(C)CC(N[C@@H](Cc1cncn1Cc1ccc(C(=O)O)cc1)C(=O)O)C(=O)O (single isomer, unassigned) [GP] with ACE (Sigma, A2580) (Sus scrofa).
< 4.30

Kindly state the measured pKi obtained for CC(C)CC(N[C@H](Cc1nc[nH]n1)C(=O)O)C(=O)O (stereo partly shown) with ACE (Sigma, A2580) (Sus scrofa).
< 4.30

Kindly state the measured pKi obtained for `O=C(O)[C@H](CC#Cc1ccccn1)N[C@H](CCc1ccccc1)C(=O)O` with ACE (Sigma, A2580) (Sus scrofa).
< 4.30

Kindly state the measured pKi obtained for `O=C(O)[C@H](CC1CCCCC1)N[C@@H](C(=O)O)c1ccccc1` with ACE (Sigma, A2580) (Sus scrofa).
< 4.30

Kindly state the measured pKi obtained for O=C(O)C(Cc1ccc(O)cc1)N[C@@H](Cc1c[nH]cn1)C(=O)O (single isomer, unassigned) [DN] with ACE (Sigma, A2580) (Sus scrofa).
< 4.30

Kindly state the measured pKi obtained for CC(C)CC(N[C@@H](Cc1cncn1COCc1ccccc1)C(=O)O)C(=O)O (single isomer, unassigned) [FG] with ACE (Sigma, A2580) (Sus scrofa).
< 4.30

Kindly state the measured pKi obtained for COC(=O)[C@H](Cc1c[nH]cn1)NC(CC(C)C)C(=O)O (single isomer, unassigned) [CU] with ACE (Sigma, A2580) (Sus scrofa).
< 4.30

Kindly state the measured pKi obtained for CC(C)C[C@H](NC(CCc1ccccc1)C(=O)O)C(=O)O (stereo partly shown) with ACE (Sigma, A2580) (Sus scrofa).
< 4.30

Kindly state the measured pKi obtained for CC(C)CC(N[C@H](Cc1cn(Cc2ccccc2)cn1)C(=O)O)C(=O)O (stereo partly shown) [CX] with ACE (Sigma, A2580) (Sus scrofa).
4.30 to 5.00

Kindly state the measured pKi obtained for CC(C)CC(NC(Cc1ccccn1)C(=O)O)C(=O)O (stereo not shown) with ACE (Sigma, A2580) (Sus scrofa).
< 4.30

Kindly state the measured pKi obtained for CC(C)CC(N[C@@H](Cc1cn(Cc2ccc(Cl)cc2)cn1)C(=O)O)C(=O)O (stereo partly shown) [EU] with ACE (Sigma, A2580) (Sus scrofa).
< 4.30

Kindly state the measured pKi obtained for CC(C)C[C@H](NC(C(=O)O)c1ccc(C(F)(F)F)cc1)C(=O)O (stereo in doubt) with ACE (Sigma, A2580) (Sus scrofa).
< 4.30

Kindly state the measured pKi obtained for COc1ccc(Cn2cnc(C[C@H](NC(CC(C)C)C(=O)O)C(=O)O)c2)cc1 (stereo partly shown) with ACE (Sigma, A2580) (Sus scrofa).
< 4.30

Kindly state the measured pKi obtained for `CCCC[C@H](N[C@@H](C(=O)O)c1ccccc1)C(=O)O` with ACE (Sigma, A2580) (Sus scrofa).
< 4.30

Kindly state the measured pKi obtained for O=C(O)C(CCc1ccccc1)N[C@@H](Cc1c[nH]cn1)C(=O)O (stereo partly shown) [ER] with ACE (Sigma, A2580) (Sus scrofa).
< 4.30

Kindly state the measured pKi obtained for `O=C(O)[C@H](CC#Cc1ccccc1)N[C@@H](CCc1ccccc1)C(=O)O` with ACE (Sigma, A2580) (Sus scrofa).
< 4.30
